test: Skin permeation study, Franz diffusion cell; assay type: in vitro ADME, porcine; settings: mass balance, 8 h
Recovered in skin outside diffusion area listing for selected compounds.

Solved cases below.
Nc1ccc(N)c(OCC2CO2)c1 (stereo not drawn) : 0.005 % of applied compound dose
COCOc1cc(N)ccc1N : 0.0024 % of applied compound dose
COCCOCCOc1cc(N)ccc1N : 0.0045 % of applied compound dose
Nc1ccc(N)c(OCCO)c1 : 0.0022 % of applied compound dose
CCOCOc1cc(N)ccc1N [Compound N3, 2-(ethoxymethoxy)benzene-1,4-diamine] : 0.004 % of applied compound dose
Nc1ccc(N)c(OCOCO)c1 : 0.0018 % of applied compound dose
CNCCOc1cc(N)ccc1N : 0.003 % of applied compound dose
C=C(C)Oc1cc(N)ccc1N : 0.0045 % of applied compound dose

Next:
Which Recovered in skin outside diffusion area is listed for N#CCOc1cc(N)ccc1N ?
0.006 % of applied compound dose
